- TESTED SYSTEM: Bcl-2-related protein A1 (Homo sapiens) (UniProt Q16548)
- Sequence (whole entry): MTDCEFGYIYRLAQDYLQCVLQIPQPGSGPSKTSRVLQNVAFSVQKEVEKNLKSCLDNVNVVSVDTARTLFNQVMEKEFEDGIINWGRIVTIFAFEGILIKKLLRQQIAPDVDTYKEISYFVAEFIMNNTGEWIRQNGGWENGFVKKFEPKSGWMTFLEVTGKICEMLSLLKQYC
- ASSAY PROCEDURE: Covalent binding affinity to Bcl2A1 in human U937 cells at 0.1 to 50 uM incubated for 24 hrs by Western blot analysis
- PROTOCOL CONDITIONS: U-937, dose 0.1-50 µM
The source made the active and inactive calls. No cut-off for these calls is given here. Positions of bridges follow the written chain, without caps; N, C: chain ends. Non-standard residues stand in square brackets, D forms with d. Residues, ends and D or L forms follow the SMILES beside them. ξ: configuration not given here. *: point of attachment. S5 = C=CCCC[C@](C)(N)C(=O)O; Acryloyl = C=CC(=O)*; Propionyl = CCC(=O)*; ξDap = NCC(N)C(=O)O
// classify into class 1 for active, class 0 for inactive

Observe how each entry below is paired with its result.
- COMPOUND: "C=CC(=O)NCC1NC(=O)[C@@H](NC(C)=O)CCCCNC(=O)C[C@@H](C(=O)N[C@@H](CCC(=O)O)C(=O)N[C@@H](CC(C)C)C(=O)N[C@@H](CCCNC(=N)N)C(=O)N[C@H]2CCCCNC(=O)C[C@@H](C(=O)N[C@@H](Cc3ccccc3)C(N)=O)NC(=O)[C@H](CC(=O)O)NC(=O)CNC(=O)[C@H]([C@@H](C)CC)NC2=O)NC(=O)[C@H](C)NC(=O)[C@H]([C@@H](C)CC)NC1=O (stereo partly specified) (Ac-K[ξDap](Acryloyl)IADELRKIGDDF-NH2; lactam 1-5, 9-13)"
  LABEL VALUE: "class 1"
- COMPOUND: "C=CC(=O)NCC(NC(=O)[C@@H](NC(C)=O)[C@@H](C)CC)C(=O)N[C@H](C(=O)N[C@@H](C)C(=O)N[C@@H](CCC(N)=O)C(=O)N[C@@H](CCC(=O)O)C(=O)N[C@@H](CC(C)C)C(=O)N[C@@H](CCCNC(=N)N)C(=O)N[C@@]1(C)CCC/C=C/CCC[C@@](C)(C(=O)N[C@@H](Cc2ccccc2)C(N)=O)NC(=O)[C@H](CC(=O)O)NC(=O)CNC(=O)[C@H]([C@@H](C)CC)NC1=O)[C@@H](C)CC (stereo partly specified) (Ac-I[ξDap](Acryloyl)IAQELR[S5]IGD[S5]F-NH2; staple (E) 9-13)"
  LABEL VALUE: "class 1"
- COMPOUND: "CCC(=O)NCC1NC(=O)[C@@](C)(NC(C)=O)CCC/C=C/CCC[C@@](C)(C(=O)N[C@@H](CCC(=O)O)C(=O)N[C@@H](CC(C)C)C(=O)N[C@@H](CCCNC(=N)N)C(=O)N[C@H]2CCCCNC(=O)C[C@@H](C(=O)N[C@@H](Cc3ccccc3)C(N)=O)NC(=O)[C@H](CC(=O)O)NC(=O)CNC(=O)[C@H]([C@@H](C)CC)NC2=O)NC(=O)[C@H](C)NC(=O)[C@H]([C@@H](C)CC)NC1=O (stereo partly specified) (Ac-[S5][ξDap](Propionyl)IA[S5]ELRKIGDDF-NH2; staple (E) 1-5; lactam 9-13)"
  LABEL VALUE: "class 0"
- COMPOUND: "C=CC(=O)NCC1NC(=O)[C@@H](NC(C)=O)CCCCNC(=O)C[C@@H](C(=O)N[C@@H](CCC(=O)O)C(=O)N[C@@H](CC(C)C)C(=O)N[C@@H](CCCNC(=N)N)C(=O)N[C@@]2(C)CCC/C=C/CCC[C@@](C)(C(=O)N[C@@H](Cc3ccccc3)C(N)=O)NC(=O)[C@H](CC(=O)O)NC(=O)CNC(=O)[C@H]([C@@H](C)CC)NC2=O)NC(=O)[C@H](C)NC(=O)[C@H]([C@@H](C)CC)NC1=O (stereo partly specified) (Ac-K[ξDap](Acryloyl)IADELR[S5]IGD[S5]F-NH2; lactam 1-5; staple (E) 9-13)"
  LABEL VALUE: "class 1"

For C=CC(=O)NCC1NC(=O)[C@@](C)(NC(C)=O)CCC/C=C/CCC[C@@](C)(C(=O)N[C@@H](CCC(=O)O)C(=O)N[C@@H](CC(C)C)C(=O)N[C@@H](CCCNC(=N)N)C(=O)N[C@H]2CCCCNC(=O)C[C@@H](C(=O)N[C@@H](Cc3ccccc3)C(N)=O)NC(=O)[C@H](CC(=O)O)NC(=O)CNC(=O)[C@H]([C@@H](C)CC)NC2=O)NC(=O)[C@H](C)NC(=O)[C@H]([C@@H](C)CC)NC1=O (stereo partly specified) (Ac-[S5][ξDap](Acryloyl)IA[S5]ELRKIGDDF-NH2; staple (E) 1-5; lactam 9-13) , which call appears in the assay record?
class 1

For C=CC(=O)NCC1NC(=O)[C@@](C)(NC(C)=O)CCC/C=C/CCC[C@@](C)(C(=O)N[C@@H](CCC(=O)O)C(=O)N[C@@H](CC(C)C)C(=O)N[C@@H](CCCNC(=N)N)C(=O)N[C@@]2(C)CCC/C=C/CCC[C@@](C)(C(=O)N[C@@H](Cc3ccccc3)C(N)=O)NC(=O)[C@H](CC(=O)O)NC(=O)CNC(=O)[C@H]([C@@H](C)CC)NC2=O)NC(=O)[C@H](C)NC(=O)[C@H]([C@@H](C)CC)NC1=O (stereo partly specified) (Ac-[S5][ξDap](Acryloyl)IA[S5]ELR[S5]IGD[S5]F-NH2; staple (E) 1-5, 9-13) , which call appears in the assay record?
class 1

###

- TESTED SYSTEM: UniProtKB Q16548
- ASSAY PROCEDURE: Covalent binding affinity to human Bcl2A1 assessed as inactivation constant by FBid based FP assay
Positions of bridges follow the written chain, without caps; N, C: chain ends. Non-standard residues stand in square brackets, D forms with d. Residues, ends and D or L forms follow the SMILES beside them. ξ: configuration not given here. *: point of attachment. S5 = C=CCCC[C@](C)(N)C(=O)O; Acryloyl = C=CC(=O)*; ξDap = NCC(N)C(=O)O
EXPERIMENTAL ENDPOINT: Kinact (s⁻¹)
// units = s⁻¹; emit number, no label

// output Kinact; input C=CC(=O)NCC1NC(=O)[C@@](C)(NC(C)=O)CCC/C=C/CCC[C@@](C)(C(=O)N[C@@H](CCC(=O)O)C(=O)N[C@@H](CC(C)C)C(=O)N[C@@H](CCCNC(=N)N)C(=O)N[C@@]2(C)CCC/C=C/CCC[C@@](C)(C(=O)N[C@@H](Cc3ccccc3)C(N)=O)NC(=O)[C@H](CC(=O)O)NC(=O)CNC(=O)[C@H]([C@@H](C)CC)NC2=O)NC(=O)[C@H](C)NC(=O)[C@H]([C@@H](C)CC)NC1=O (stereo not given in full) (Ac-[S5][ξDap](Acryloyl)IA[S5]ELR[S5]IGD[S5]F-NH2; staple (E) 1-5, 9-13) ; system UniProtKB Q16548
0.00224

// output Kinact; input C=CC(=O)NCC(NC(=O)[C@@H](NC(C)=O)[C@@H](C)CC)C(=O)N[C@H](C(=O)N[C@@H](C)C(=O)N[C@@H](CCC(N)=O)C(=O)N[C@@H](CCC(=O)O)C(=O)N[C@@H](CC(C)C)C(=O)N[C@@H](CCCNC(=N)N)C(=O)N[C@@]1(C)CCC/C=C/CCC[C@@](C)(C(=O)N[C@@H](Cc2ccccc2)C(N)=O)NC(=O)[C@H](CC(=O)O)NC(=O)CNC(=O)[C@H]([C@@H](C)CC)NC1=O)[C@@H](C)CC (stereo not given in full) (Ac-I[ξDap](Acryloyl)IAQELR[S5]IGD[S5]F-NH2; staple (E) 9-13) ; system UniProtKB Q16548
0.00159

// output Kinact; input C=CC(=O)NCC1NC(=O)[C@@](C)(NC(C)=O)CCC/C=C/CCC[C@@](C)(C(=O)N[C@@H](CCC(=O)O)C(=O)N[C@@H](CC(C)C)C(=O)N[C@@H](CCCNC(=N)N)C(=O)N[C@H]2CCCCNC(=O)C[C@@H](C(=O)N[C@@H](Cc3ccccc3)C(N)=O)NC(=O)[C@H](CC(=O)O)NC(=O)CNC(=O)[C@H]([C@@H](C)CC)NC2=O)NC(=O)[C@H](C)NC(=O)[C@H]([C@@H](C)CC)NC1=O (stereo not given in full) (Ac-[S5][ξDap](Acryloyl)IA[S5]ELRKIGDDF-NH2; staple (E) 1-5; lactam 9-13) ; system UniProtKB Q16548
0.00367

// output Kinact; input C=CC(=O)NCC1NC(=O)[C@@H](NC(C)=O)CCCCNC(=O)C[C@@H](C(=O)N[C@@H](CCC(=O)O)C(=O)N[C@@H](CC(C)C)C(=O)N[C@@H](CCCNC(=N)N)C(=O)N[C@H]2CCCCNC(=O)C[C@@H](C(=O)N[C@@H](Cc3ccccc3)C(N)=O)NC(=O)[C@H](CC(=O)O)NC(=O)CNC(=O)[C@H]([C@@H](C)CC)NC2=O)NC(=O)[C@H](C)NC(=O)[C@H]([C@@H](C)CC)NC1=O (stereo not given in full) (Ac-K[ξDap](Acryloyl)IADELRKIGDDF-NH2; lactam 1-5, 9-13) ; system UniProtKB Q16548
0.00349

// output Kinact; input C=CC(=O)NCC1NC(=O)[C@@H](NC(C)=O)CCCCNC(=O)C[C@@H](C(=O)N[C@@H](CCC(=O)O)C(=O)N[C@@H](CC(C)C)C(=O)N[C@@H](CCCNC(=N)N)C(=O)N[C@@]2(C)CCC/C=C/CCC[C@@](C)(C(=O)N[C@@H](Cc3ccccc3)C(N)=O)NC(=O)[C@H](CC(=O)O)NC(=O)CNC(=O)[C@H]([C@@H](C)CC)NC2=O)NC(=O)[C@H](C)NC(=O)[C@H]([C@@H](C)CC)NC1=O (stereo not given in full) (Ac-K[ξDap](Acryloyl)IADELR[S5]IGD[S5]F-NH2; lactam 1-5; staple (E) 9-13) ; system UniProtKB Q16548
0.00231
